Source of measurements: patent US20200079833A1

- Tgt: GLP-1 receptor (GLP-1R) (human, UniProt P43220 24-463)
- Test: cell-based or functional assay
Starred links: 1 amine or outer side, 2 acyl side, 3 side chain; linkers in the order of their positions; H or OH if unused. Non-standard residues stand in square brackets, D forms with d. Groups on a side chain read outwards from the residue. Primed or numbered codes have the meaning given here. No end group written: not given here. *: point of attachment. Dodecylbenzoate = dodecylbenzoyl lipid group; γGlu = O=C(O)[C@H](CCC(=O)[*:2])N[*:1]; Stearoyl = CCCCCCCCCCCCCCCCCC(=O)*; αMeF = C[C@](N)(Cc1ccccc1)C(=O)O; αMeK = C[C@](N)(CCCCN)C(=O)O; Lauroyl = CCCCCCCCCCCC(=O)*; αMeS = C[C@](N)(CO)C(=O)O; PEG2′ = not defined here; Aib = CC(C)(N)C(=O)O; Ahx = NCCCCCC(=O)O
Value Kind: Primary assay EC50 (cAMP), GLP-1R n2 (pM)

# count of solved cases: 2
1) H[Aib]EGS[αMeF]TSDV[αMeS]S[αMeF]LEGEAAK([PEG2′-PEG2′-Stearoyl])E[αMeF]IA[αMeF]VV[αMeK]GG-NH2 [SEQ ID NO 153]; 5
2) H[Aib]EGS[αMeF]TSDV[αMeS]S[αMeF]LEGEAA[αMeK]E[αMeF]IA[αMeF]VVK([γGlu-γGlu-γGlu-Dodecylbenzoate])GG-NH2 [SEQ ID NO 175]; 12

(P) H[Aib]EGS[αMeF]TSDV[αMeS]S[αMeF]LEGEAA[αMeK]E[αMeF]IA[αMeF]VVK([Ahx-Ahx-Ahx-Dodecylbenzoate])GG-NH2 [SEQ ID NO 178]
(Q) H[Aib]EGS[αMeF]TSDV[αMeS]S[αMeF]LEGEAA[αMeK]E[αMeF]IA[αMeF]VVK([PEG2′-PEG2′-PEG2′-Lauroyl])GG-NH2 [SEQ ID NO 172]
Compare the recorded Primary assay EC50 (cAMP), GLP-1R n2 of P and Q ; state which is larger. Your choice should be expressed through its label. P
(P: 2.3 pM, Q: 0.72 pM)
